Would you kindly list Geometric Mean for each of these binders?
target: T1, human CD84 on the cell surface (human, UniProt Q9UIB8 22-345)
T1 construct: whole, on cells; also called Cluster of Differentiation 84
T1 sequence (looked up): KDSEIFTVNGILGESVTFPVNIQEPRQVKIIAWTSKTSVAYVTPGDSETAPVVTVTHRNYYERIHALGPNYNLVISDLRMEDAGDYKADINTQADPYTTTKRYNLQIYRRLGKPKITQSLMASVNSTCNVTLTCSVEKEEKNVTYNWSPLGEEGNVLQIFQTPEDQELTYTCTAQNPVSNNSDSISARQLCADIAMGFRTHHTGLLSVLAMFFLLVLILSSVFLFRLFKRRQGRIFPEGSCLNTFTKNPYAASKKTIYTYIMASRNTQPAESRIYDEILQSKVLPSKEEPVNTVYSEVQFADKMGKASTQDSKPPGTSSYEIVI
assay_name: flow cytometry, hybridoma supernatant on NS0 cells expressing human CD84

Inquiry: Need Geometric Mean, item anti-CD84 hybridoma clone 7D2 (antibody, V domains shown) VH: QVHLQQSGAELVRPGTSVKISCKASGYTFTNYWLGWVKQRPGHGLEWIGDIFPGGGYINYHEKFKGKATLTADTSSSTAYMQLSSLTSEDSAVYFCAYGNVAMDYWGQGTSVTVSS VL: QIILTQTPAIMSASPGEKVTVTCSASSSVSYVHWYQQKSGTSPKRWIYDTSKLASGVPARFSGSGSGTSYSLTISTMEAEDAATYYCQQWNNSPRTFGGGTKLEIK
Reply text: 2260

Inquiry: Need Geometric Mean, item anti-CD84 hybridoma clone 5C6 (antibody, V domains shown) VH: QVHLQQSGAELVRPGTSVKISCKASGYTFTNYWLGWVKQRPGHGLEWIGDIFPGGGYINYHEKFKGKATLTADTSSSTAYMQLSSLTSEDSAVYFCGYGNIAMDYWGQGTSVTVSS VL: QIILTQTPAIMSASPGEKVTMTCSASSSVSYVHWYQQKSGTSPKRWIYDTSKLASGVPARFSGSGSGTSYSLTISTMEAEDAATYYCQQWNNSPRTFGGGTKLEIK
Reply text: 1690

Inquiry: Need Geometric Mean, item anti-CD84 hybridoma clone 2H7 (antibody, V domains shown) VH: DVQLQESGPGLVKPSQSLSLTCTVTGYSITSDYAWNWIRQFPGNKLEWMGYISYSGTTSYNPSLKSRISITRDTSKNQFFLQLNSVTTEDTATYYCASLHYYGSRYKKLYAMDYWGQGTLATVSS VL: NIVMTQSPKSMSMSVGERVTLSCKASDNVGTYVSWYQQKPEQSPKLLIYGASNRYTGVPDRFTGSGSATDFTLTISSVQAEDLADYHCGQSYSYPTFGGGTKLEIK
Reply text: 1550

Inquiry: Need Geometric Mean, item anti-CD84 hybridoma clone 4B11 (antibody, V domains shown) VH: EVKLVESGGGLVQPGGSLRLSCATSGFTFSDFYMDWVRQPPGKRLEWIATSRNKANDYTTEYSASVRGRFIVSRDTSQSILYLQMNALRAEDTAIYYCARDAVWEPFAYWGQGTLVTVSA VL: EIVLTQSPTTMAASPGEKITVTCSANSSISSNSLHWYQQKPGFSPKLLIYRTSNLASGVPARFSGSGSGTSYFLTIGTMEAEDVATYYCQQGTSIPRTFGGGTKLEIK
Reply text: 1100
